Recorded measurements of CC50, one per entry
# Experiment Description: CC50 reported alongside the CHIKV antiviral assay (cytotoxicity)
# Assay type: cell-based
# Details: cell line not given
# Source text: The compounds below in Table 1 were synthesized with methods identical or analogous to those described herein. The requisite starting materials were commercially available, described in the literature, or readily synthesized by one skilled in the art of organic synthesis.

Would you please look over these solved cases?
Given Smiles: CCOc1cc2c(cc1NC(=O)c1ccc(C(C)(C)C)cc1)CCCCC2
CC50: 10 µM
//
Given Smiles: COc1cc2c(cc1NC(=O)c1cnc(C(C)(C)C)s1)CCCCC2
CC50: > 30 µM
//
Given Smiles: COc1cc2c(cc1N(C)C(=O)c1ccc(C(C)(C)C)cc1)CCCCC2
CC50: > 30 µM
//
Given Smiles: CC(C)(C)c1ccc(C(=O)Nc2cc3c(cc2N)CCCCC3)cc1
CC50: > 30 µM
//
Given Smiles: COc1cc2c(cc1NC(=O)c1ccc(OC(F)(F)F)cc1)CCCCC2
CC50: > 30 µM
//
Given Smiles: CCn1cc(C(=O)Nc2cc3c(cc2OC)CCCCC3)c(C(F)(F)F)n1
CC50: 34.5 µM
//
Given Smiles: COCCOc1cc2c(cc1NC(=O)c1ccc(C(C)(C)C)cc1)CCCCC2
CC50: > 30 µM
//
Given Smiles: COc1cc2c(cc1NC(=O)c1ccc(C(C)(C)CO)cc1)CCCCC2
CC50: 96.3 µM

# lookup: CC50 of COc1cc2c(cc1NC(=O)c1ccc(C(C)(C)C)cc1)CCCC(=O)N2C(C)C > 30 µM

# lookup: CC50 of COc1cc2c(cc1N1Cc3cc(C(C)(C)C)ccc3C1=O)CCCCC2 > 30 µM

* * *

# Tested on: Chikungunya virus
# Experiment Description: Evaluation of antiviral activity against Chikungunya virus (EC90)
# Format: cell-based
# Details: Chikungunya virus, read-out: EC90 (μM) CHIKV, concentration required for 90% inhibition of CHIKV
Metric: EC90 (µM)
Record the value in µM, omitting the unit from your answer.

Would you please look over these solved cases?
Given Smiles: CCn1cc(C(=O)Nc2cc3c(cc2OC)CCCCC3)c(C(F)(F)F)n1
EC90 [µM]: 2.95
//
Given Smiles: COc1cc2c(cc1NC(=O)Cc1ccc(C(C)(C)C)cc1)CCCCC2
EC90 [µM]: 42.9

Continue with the next compound.
# lookup: EC90 of COc1cc2c(cc1NC(=O)c1ccc(Cl)cc1)CCCCC2 6.4

* * *

Recorded measurements of EC90, one per entry
# Test system: Chikungunya virus
# Experiment Description: Evaluation of antiviral activity against Chikungunya virus (EC90)
# Format: cell-based
# Details: Chikungunya virus, read-out: EC90 (μM) CHIKV, concentration required for 90% inhibition of CHIKV
Record the value in µM, omitting the unit from your answer.

# lookup: EC90 of COc1cc2c(cc1NC(=O)c1ccc(C(C)(C)C(F)(F)F)cc1)CCCCC2 3.47

# lookup: EC90 of CC(C)(C)c1ccc(C(=O)Nc2cc3c(cc2C#N)CCCCC3)cc1 4.4

# lookup: EC90 of COc1cc2c(cc1NC(=O)c1ccc(C(C)(C)C)o1)CCCCC2 23.2

# lookup: EC90 of COc1cc2c(cc1NC(=O)c1ccc(OC(F)(F)F)cc1)CCCCC2 3.3

# lookup: EC90 of COc1cc2c(cc1NC(=O)c1ccc(C(C)(C)O)cc1)CCCCC2 2.45

# lookup: EC90 of COc1cc2c(cc1NC(=O)c1ccc(C(C)(C)C#N)cc1)CCCCC2 1.16

# lookup: EC90 of COc1cc2c(cc1NC(=O)c1ccc(C(C)(C)C)cc1)CCCCN2 3.3

# lookup: EC90 of COc1cc2c(cc1N(C)C(=O)c1ccc(C(C)(C)C)cc1)CCCCC2 14.5

# lookup: EC90 of COc1cc2c(cc1NC(=O)c1ccccc1C(C)(C)C)CCCCC2 3.2

# lookup: EC90 of COc1cc2c(cc1NC(=O)c1ccc(C3CC3)cc1)CCCCC2 12.3

# lookup: EC90 of COc1c(NC(=O)c2ccc(C(C)(C)C)cc2)cc2c(c1F)CCCCC2 12.5

# lookup: EC90 of CCOc1cc2c(cc1NC(=O)c1ccc(C(C)(C)C)cc1)CCCCC2 5.19
